- Tested on: HB3
- Method description: qHTS profiling for inhibitors of Plasmodium falciparum proliferation (AID 504749); further: nearly all actives have a fitted effect of over 60% in size; further: potency means the concentration at half of the fitted maximal effect
- Measurement conditions: P. falciparum in erythrocytes, SYBR Green DNA, 72 h; series mostly up to 28.7 µM
Results filed as inconclusive are left out. Activity calls are given as the source filed them. The call rests on the fitted dose curve; in most records, active means well fitted inhibition curve with a large enough effect; inconclusive means small, poorly fitted or top-dose-only effect; inactive means flat fitted curve, though single readings scatter.
Endpoint: Potency

Sample answers from the record:
[
  {
    "Molecule": "O=C(O)CO.[NH2-].[NH2-].[Pt+2]",
    "Potency": "inactive"
  },
  {
    "Molecule": "CC1(C)O[C@@H]2C[C@@H]3[C@H]4C[C@@H](F)C5=CC(=O)C=C[C@]5(C)[C@@]4(F)[C@@H](O)C[C@]3(C)[C@]2(C(=O)CO)O1",
    "Potency": "inactive"
  },
  {
    "Molecule": "Nc1ccc(S(=O)(=O)Nc2ncccn2)cc1",
    "Potency": "inactive"
  },
  {
    "Molecule": "CC=CC1=C(C(=O)O)N2C(=O)[C@H](NC(=O)[C@H](N)c3ccc(O)cc3)[C@@H]2SC1",
    "Potency": "inactive"
  },
  {
    "Molecule": "COc1cc(C(=O)NS(=O)(=O)c2ccccc2C)ccc1Cc1cn(C)c2ccc(NC(=O)OC3CCCC3)cc12",
    "Potency": "inactive"
  },
  {
    "Molecule": "CC[C@H]1CN2CCc3cc(OC)c(OC)cc3[C@H]2C[C@@H]1C[C@@H]1NCCc2cc(OC)c(OC)cc21",
    "Potency": "316 nM (active)"
  }
]

# per-item lookup of Potency; items listed below
1. CN1c2cc(O)c(N=NC(N)=O)cc2CC1S(=O)(=O)O (stereo unspecified)
2. C[C@H]1C[C@@H]2[C@@H]([C@@H](O)C[C@@]3(C)[C@H]2CC[C@]3(O)C(=O)CO)[C@@]2(C)C=CC(=O)C=C12
3. Nc1ccn([C@@H]2O[C@H](CO)[C@H](O)C2(F)F)c(=O)n1
4. Nc1ccn([C@@H]2CS[C@H](CO)O2)c(=O)n1

[out]
1: inactive; 2: inactive; 3: 3980 nM (active); 4: inactive

The molecule O=c1[nH]c(=O)n(C2CCCO2)cc1F (stereo unspecified) showed Potency equal to inactive
